Values from patent US20210047431A1

Target: T1, recombinant human pro-sPLA2-GIB (pro form of group IB pancreatic phospholipase A2) (human, UniProt P04054 16-148)
T1 construct: also called pro-sPLA2-IB; proPLA2-GIB
T1 sequence (P04054 16-148): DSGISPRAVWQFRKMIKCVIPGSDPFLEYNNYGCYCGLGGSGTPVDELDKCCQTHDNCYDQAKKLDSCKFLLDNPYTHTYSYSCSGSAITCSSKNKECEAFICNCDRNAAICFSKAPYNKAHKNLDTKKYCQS
Assay: indirect ELISA, coated antigen
measuredParameter: pEC50
On this scale, pEC50 is minus log10 of a concentration expressed in M (mol/L).

# binder, pEC50
measured = [
    ("#24B2 (antibody, IgG2a, V domains shown) VH: DVQVQESGPGLVKPSQTVSLNCTVTGHSITDDNYYWSWIRLVSGSKLEWIGYITSSGSTDINPSLKSRISITRDISKNQFFLHLNSVTAEDTATYYCARDSTDGDFYFEKWGQGTTLTVSS VL: DIVLTQSPASLAVSLGQRATISCRASESVDNYGISFMHWYQQKPGQPPKLLIYRASNLESGIPARFSGSGSRTDFTLTINPVETDDVATYYCQQSSRDLFTFGGGTKLEIKR", 7.09),
    ("#7A10 (antibody, IgG1, V domains shown, also called monoclonal antibody 7A10; #7A10 mAb) VH: QVQLKESGPGLVAPSQSLSITCTVSGFSLTSYGVSWVRQPPGKGLEWLGVIWGDGSTNYHSALISRLSISKDNSKSQVFLKLNSLQTDDTATYYCAKEGGLRRGVYFDYWGQGTTLTVSS VL: DIQMNQSPSSLSASLGDTITITCRASQGISIWLDWYQQKPGNIPKLLIYKASNLHTGVPPRFSGSGSGTDFTLTISSLQPEDIATYYCLQSQSYPLTFGAGTKLELKR", 7.89),
    ("#1C11 (antibody, IgG1, V domains shown, also called monoclonal antibody 1C11; #1C11 mAb) VH: EVKLQESGPELVKPGASVKISCKVSGYAFSSFWMNWVKQRPGKGLEWIGRIYPGDGDINYNGKFKGKATLTADKSSSTAYMQLSSLTSEDSAVYFCVRGWAWFPYWGQGTLVTVSA VL: EIVLTQSPAITSASLGQRVTISCSATSSVSYVHWYQQKSGTSPKPWIYEISRLASGVPARFSGSGSGTSYSLTISTMEAEDAAIYYCQSWNFPLLSFGAGTKLELKR", 8.40),
]

Then there is this binder:
Entry #22C6 (antibody, IgG2a, V domains shown) VH: EVQLQESGPGLVKPSQTVSLNCTVTGHSITDDNYYWSWIRLVSGSKLEWIGYITSAGNTDNNPSLKSRISITRDISKNQFFLHLSSVTAEDTATYYCARDSTDGDFYFEKWGQGTTLTVSS VL: EIVLTQSPTTMAASPGEKITITCSVSSSISPNFLHWYQQKPGFSPKLLIFRTSNLASGVPTRFSGSGSGTSYSLTIGTMEAEDVATYYCHQGNSLPLTFGAGTKLELKR — recorded pEC50 = 6.93
